Hello, the source for this data is paper PMC7826789, in case you need it.

# Tested on: FER
# assay.context: Compound Concentration (nM):1000;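 also: KINOMEscan scanMAX binding as percent activity remaining versus control; lower means stronger binding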
measured.attribute: Percent Control (%)
API: value field is a number in %; no unit string.

Below, each entry is followed by its recorded Percent Control result.
- compound: "COc1cc(C)c(N(C)C(=O)CN(C)C)cc1Nc1nc(Nc2cccc(F)c2C(N)=O)c2cc[nH]c2n1"
  target.system: "FER"
  Percent Control [%]: 91
- compound: "COc1cc2ncn(-c3cc(O[C@H](C)c4ccccc4Cl)c(C(N)=O)s3)c2cc1OC [GSK237701A]"
  target.system: "FER"
  Percent Control [%]: 100

// next entry
Requested field: Percent Control. Item: COc1cc(C=NNc2ncnc3c2cnn3-c2ccccc2)ccc1O [GW513184X]
100

* * *

Listed here are compounds together with their documented Percent Control.
# Test system: SBK1
# assay.context: Compound Concentration (nM):1000
API: value field is a number in %; no unit string.

- compound: "Cl.O=C(Nc1ccc(Oc2ccc3[nH]c(NC(=O)c4ccco4)nc3c2)cc1)Nc1cc(C(F)(F)F)ccc1F [GW683134A]"
  unit.spec: "%"
  Percent Control: 100

Requested field: Percent Control. Item: COc1cc(C=NNc2ncnc3c2cnn3-c2ccccc2)ccc1O [GW513184X]
100

Requested field: Percent Control. Item: `CCc1ccc(Oc2nccc(-c3c(-c4ccc(F)cc4)ncn3C3CCNCC3)n2)cc1`
100

Requested field: Percent Control. Item: CC(C)COC(=O)c1ccc2c(c1)/C(=C/Nc1ccc(S(N)(=O)=O)cc1)C(=O)N2 [GW416981X]
71

Requested field: Percent Control. Item: CN(C)c1cc2c(Nc3ccc4c(cnn4Cc4ccccc4)c3)ncnc2cn1 [GW282974X]
100

Requested field: Percent Control. Item: CCS(=O)(=O)c1ccc(OC)c(Nc2ncc(-c3cccc(F)c3)o2)c1 [GW621970X]
100

Requested field: Percent Control. Item: Nc1ncnc2occ(-c3ccc(NC(=O)Nc4cc(C(F)(F)F)ccc4F)cc3)c12 [GW770249X]
100

Requested field: Percent Control. Item: COC(=O)Nc1nc2ccc(Oc3ccc(NC(=O)Nc4cc(C(F)(F)F)ccc4F)cc3)cc2s1.Cl [GW693917A]
100

Requested field: Percent Control. Item: Cl.O=C(Nc1ccc(Oc2ccc3[nH]c(NC(=O)c4ccccc4)nc3c2)cc1)Nc1cc(C(F)(F)F)ccc1F [GW709042A]
100

Requested field: Percent Control. Item: `NS(=O)(=O)c1ccc(N/N=C2\C(=O)Nc3ccc(-c4cnco4)cc32)cc1`
76

Requested field: Percent Control. Item: CCS(=O)(=O)c1ccc(OC)c(Nc2ncc(-c3cccc(OC)c3)o2)c1 [GW580509X]
100

Requested field: Percent Control. Item: CN(C)CCNC(=O)Nc1ccc(N(C)c2ccnc(Nc3ccc(CS(C)(=O)=O)cc3)n2)cc1.Cl [GW830900A]
95

* * *

# Tested on: EPHA4
# assay.context: Compound Concentration (nM):1000
measured.attribute: Percent Control

Below, each entry is followed by its recorded Percent Control result.
- compound: "CC(C)COC(=O)c1ccc2c(c1)/C(=C/Nc1ccc(S(N)(=O)=O)cc1)C(=O)N2 [GW416981X]"
  Percent Control: "94%"
- compound: "C[C@@H](Oc1cc(-n2cnc3ccc(OC4CCN(C)CC4)cc32)sc1C(N)=O)c1ccccc1Cl [GSK579289A]"
  Percent Control: "97%"
- compound: "O=C(Nc1n[nH]c2nc(-c3ccc(O)cc3)c(Br)cc12)C1CC1"
  Percent Control: "86%"
- compound: "COc1cc2ncn(-c3cc(O[C@H](C)c4ccccc4Cl)c(C(N)=O)s3)c2cc1OC [GSK237701A]"
  Percent Control: "72%"
- compound: "NS(=O)(=O)c1ccc(N/N=C2\\C(=O)Nc3ccc(C(=O)NCc4ccncc4)cc32)cc1 [GW300657X]"
  Percent Control: "88%"
- compound: "Cl.O=C(O[C@H]1CN[C@H](C#Cc2cc3ncnc(Nc4ccc5c(cnn5Cc5ccccc5)c4)c3s2)C1)N1CCOCC1 [GSK200398A]"
  Percent Control: "96%"
- compound: "CN1CCN(C(=O)c2ccc(NC(=O)Nc3ccc(N(C)c4ccnc(Nc5ccc(CS(C)(=O)=O)cc5)n4)cc3)cc2)CC1.Cl [GW830263A]"
  Percent Control: "85%"

Requested field: Percent Control. Item: Cl.O=C(Nc1ccc(Oc2ccc3[nH]c(NC(=O)c4ccccc4)nc3c2)cc1)Nc1cc(C(F)(F)F)ccc1F [GW709042A]
62%

* * *

# Test system: SRMS
# assay.context: Compound Concentration (nM):1000
Note to self: values exactly at 90% are satisfied. So Percent Control at or above 90% is satisfied, below is not satisfied.

Take a look at these entries with their results.
- compound: "CN1CCN(C(=O)c2ccc(NC(=O)Nc3ccc(N(C)c4ccnc(Nc5ccc(CS(C)(=O)=O)cc5)n4)cc3)cc2)CC1.Cl [GW830263A]"
  label: "not satisfied"
- compound: "COc1cc(/C=N/Nc2ncnc3[nH]ncc23)ccc1O [GW578748X]"
  label: "not satisfied"
- compound: "NS(=O)(=O)c1ccc(N/N=C2\\C(=O)Nc3ccc(-c4cnco4)cc32)cc1"
  label: "not satisfied"
- compound: "NS(=O)(=O)c1ccc(N/N=C2\\C(=O)Nc3ccc(Cl)cc32)cc1 [GW280670X]"
  label: "satisfied"

Form field: Percent Control at least 90%? Entry: NS(=O)(=O)c1ccc(N/N=C2\C(=O)Nc3ccc(C(=O)NCc4ccncc4)cc32)cc1 [GW300657X]
satisfied

Form field: Percent Control at least 90%? Entry: COc1ccc2[nH]c3c4[nH]c5ccc(OC)cc5c4c4c(c3c2c1)C(=O)NC4=O [GW296115X]
satisfied

Form field: Percent Control at least 90%? Entry: Cl.O=C(Nc1ccc(Oc2ccc3[nH]c(NC(=O)c4ccco4)nc3c2)cc1)Nc1cc(C(F)(F)F)ccc1F [GW683134A]
satisfied

Form field: Percent Control at least 90%? Entry: `COc1cc(C)c(N(C)C(=O)CN(C)C)cc1Nc1nc(Nc2cccc(F)c2C(N)=O)c2cc[nH]c2n1`
satisfied

Form field: Percent Control at least 90%? Entry: COc1ccc2c(-c3ccnc(Nc4cccc(OC(F)(F)F)c4)n3)cnn2n1 [GW810372X]
satisfied

Form field: Percent Control at least 90%? Entry: COc1ccccc1-c1cc(/C=C2\C(=O)Nc3ncc(Br)cc32)cc(Br)c1O [GW442130X]
satisfied

Form field: Percent Control at least 90%? Entry: COc1cc(C=NNc2ncnc3c2cnn3-c2ccccc2)ccc1O [GW513184X]
satisfied

Form field: Percent Control at least 90%? Entry: Cl.O=S1CCN(Cc2ccc(-c3ccc4ncnc(Nc5ccc(OCc6ccccc6)c(F)c5)c4c3)o2)CC1 [GW576924A]
satisfied

Form field: Percent Control at least 90%? Entry: COc1cccc(-c2c[nH]c3c(N/N=C/c4ccncc4)ncnc23)c1 [GW814408X]
satisfied

Form field: Percent Control at least 90%? Entry: CC(C)COC(=O)c1ccc2c(c1)/C(=C/Nc1ccc(S(N)(=O)=O)cc1)C(=O)N2 [GW416981X]
satisfied

Form field: Percent Control at least 90%? Entry: CN(C)CCNC(=O)Nc1ccc(N(C)c2ccnc(Nc3ccc(CS(C)(=O)=O)cc3)n2)cc1.Cl [GW830900A]
satisfied

Form field: Percent Control at least 90%? Entry: COc1ccc(COc2ccc(Cc3cnc(N)nc3N)cc2OC)cc1 [GW632580X]
satisfied

* * *

# System: PCTK3
# Construct: gene CDK18
# assay.context: Compound Concentration (nM):1000
measured.attribute: Percent Control

Below, each entry is followed by its recorded Percent Control result.
- molecule: "Cl.O=C(Nc1ccc(Oc2ccc3[nH]c(NC(=O)c4ccco4)nc3c2)cc1)Nc1cc(C(F)(F)F)ccc1F [GW683134A]"
  target.system: "PCTK3"
  measured.attribute: "Percent Control"
  value.measured: "100%"
- molecule: "COC(=O)Nc1nc2ccc(Oc3ccc(NC(=O)Nc4cc(C(F)(F)F)ccc4F)cc3)cc2s1.Cl [GW693917A]"
  target.system: "PCTK3"
  measured.attribute: "Percent Control"
  value.measured: "78%"
- molecule: "Cc1cc(O)cc(C)c1/C=C/c1cncc(C(N)=O)c1 [GW435821X]"
  target.system: "PCTK3"
  measured.attribute: "Percent Control"
  value.measured: "93%"

// next entry
Requested field: Percent Control. Item: O=C1Nc2ccc(C(=O)c3ccco3)cc2C1=Cc1cc(Cl)c(O)c(Cl)c1 [GW406108X]
91%

* * *

Listed here are compounds together with their documented Percent Control.
# System: CAMK1D
# assay.context: Compound Concentration (nM):1000
API: value field is a number in %; no unit string.

Below, each entry is followed by its recorded Percent Control result.
- compound: "COc1cc2ncnc(Nc3ccc4c(cnn4Cc4ccccc4)c3)c2cc1OC.Cl [GW282449A]"
  target.system: "CAMK1D"
  Percent Control (%): 100
- compound: "CCS(=O)(=O)c1ccc(OC)c(Nc2ncc(-c3cccc(OC)c3)o2)c1 [GW580509X]"
  target.system: "CAMK1D"
  Percent Control (%): 99
- compound: "CCS(=O)(=O)c1ccc(OC)c(Nc2ncc(-c3cccc(F)c3)o2)c1 [GW621970X]"
  target.system: "CAMK1D"
  Percent Control (%): 100

// next entry
Requested field: Percent Control. Item: COC(=O)Nc1nc2ccc(Oc3ccc(NC(=O)Nc4cc(C(F)(F)F)ccc4F)cc3)cc2s1.Cl [GW693917A]
90
